Here the recorded log Conditional Stability Constant (@ pH) Cu^+2 is given for each entry.
# ASSAY_EXPLANATION: Calculated conditional stability constants for chelants with Cu^+2 at specified pH
# Assay type: physicochemical
# PROTOCOL_CONDITIONS: pH 3

Worked set:
COMPOUND | RESULT
O=C(O)CN(CCO)CCN(CC(=O)O)CC(=O)O [HEDTA] | 6.30
O=C(O)CC(NCCNC(CC(=O)O)C(=O)O)C(=O)O (mixture of isomers) [EDDS, ethylene diamine disuccinic acid] | 6.28
O=C(O)CC(NCC(O)CNC(CC(=O)O)C(=O)O)C(=O)O (centres unmarked) [HPDDS] | −0.37
O=P(O)(O)CN(CCN(CP(=O)(O)O)CP(=O)(O)O)CCN(CP(=O)(O)O)CP(=O)(O)O [DTPMP] | −5.10
CC(C(=O)O)N(CC(=O)O)CC(=O)O (centres unmarked) [MGDA, methylglycinediacetic acid] | 5.84

Consider the compound O=C(O)CN(CCN(CC(=O)O)CC(=O)O)CCN(CC(=O)O)CC(=O)O [DTPA] and give its measured log Conditional Stability Constant (@ pH) Cu^+2. 6.88

Using the record for O=C(O)CC[C@@H](C(=O)O)N(CC(=O)O)CC(=O)O [GLD, glutamic acid diacetic acid] , report its log Conditional Stability Constant (@ pH) Cu^+2. 3.32

Which log Conditional Stability Constant (@ pH) Cu^+2 value belongs to O=C(O)CN(CCN(CC(=O)O)CC(=O)O)CC(=O)O [EDTA] ? 8.29
